- TARGET OR SYSTEM: FaRRP1–FaPYL2 protein complexes
- TEST NAME: ITC binding of ABA to FaRRP1–FaPYL2 complex
- APPLIED CONDITIONS: 0.4 mM S-(+)-ABA titrated into 20 μM complex, pH 7.4, 25 °C, endothermic
pKd: −log10 of the molar value.

| COMPOUND | pKd |
| --- | --- |
| CC1=CC(=O)CC(C)(C)[C@@]1(O)/C=C/C(C)=C\C(=O)O [ABA, Abscisic acid] | 4.51 |

----------
- TARGET OR SYSTEM: FaRRP1–FaABAR protein complexes (Fragaria x ananassa, UniProt C6KF71+K9LRD7)
- TEST NAME: ITC binding of ABA to FaRRP1–FaABAR complex
- APPLIED CONDITIONS: 0.4 mM S-(+)-ABA titrated into 20 μM complex, pH 7.4, 25 °C, exothermic
pKd: −log10 of the molar value.

| MOLECULE | pKd |
| --- | --- |
| CC1=CC(=O)CC(C)(C)[C@@]1(O)/C=C/C(C)=C\C(=O)O [ABA, Abscisic acid] | 4.06 |
